glass transition temperature of 200 °C or higher: label 1. Under 200 °C: label 0.

compound	class.assignment
*CC(*)C(=O)OC(C)(C)C (repeat unit) [Poly(t-butyl acrylate)]	label 0
*C(=O)Nc1ccc(Oc2ccc(C(=O)c3ccc(Oc4ccc(NC(=O)c5ccc(*)nc5)cc4)cc3)cc2)cc1 (repeat unit)	label 0
*/C=C/c1ccc(*)cc1 (repeat unit) [Poly(p-phenylenevinylene)s]	label 0
*Oc1ccc(Oc2cccc(C(=O)Oc3ccc(OC(=O)c4cccc(*)c4)cc3)c2)cc1 (repeat unit)	label 0
*CC(*)(C)C(=O)OCCN(CCCC)c1ccc(/N=N/c2ccc(S(=O)(=O)Nc3nccs3)cc2)cc1 (repeat unit)	label 0
*CCCCCCCCNC(=O)CCCCCCCCCCCCCCCCCCCCC(=O)N* (repeat unit)	label 0
*Oc1ccc(CC(NC(=O)CCc2ccc(OC(=O)CCC(*)=O)cc2)C(=O)OCCCCCCCC)cc1 (repeat unit)	label 0
*CC(*)C(=O)OCCCOc1ccc(-c2ccc(C#N)cc2)cc1 (repeat unit)	label 0
*c1ccc(-c2ccc(N3C(=O)c4ccc(Oc5ccc6c(c5)C(=O)N(*)C6=O)cc4C3=O)cc2)cc1 (repeat unit)	label 1
*CC(*)c1ccc(C(=O)CCCCCCC)cc1 (repeat unit)	label 0
*CCOCO* (repeat unit)	label 0
*NC1CC(C)(C)CC(C)(CNC(=O)c2cc(NC(=O)C(C(C)CC)N3C(=O)c4ccccc4C3=O)cc(C(*)=O)c2)C1 (repeat unit)	label 0
*CC(*)C(=O)NC(C)C (repeat unit) [Poly(N-isopropyl acrylamide)]	label 0
*Oc1ccc(C(c2ccccc2)(c2ccccc2)c2ccc(OC(=O)c3cccc(C(*)=O)c3)cc2)cc1 (repeat unit)	label 1
*CC(*)(C)C(=O)OC1CC2CCC1(C)C2(C)C (repeat unit)	label 0
*CC(*)c1ccc(COCCOCCCCCCCC)cc1 (repeat unit)	label 0
*c1ccc2c(c1)C(=O)N(c1ccc(Sc3ccc(N4C(=O)c5ccc(C(*)(C(F)(F)F)C(F)(F)F)cc5C4=O)cc3)cc1)C2=O (repeat unit)	label 1
*O[Si](*)(C)CCCOc1ccc(C(=O)OCCOc2ccc(C(=O)OC3CCC4(C)C(=CCC5C4CCC4(C)C(C(C)CCCC(C)C)CCC54)C3)cc2)cc1 (repeat unit)	label 0
*C(=O)c1ccc2c(c1)C(=O)N(c1ccc(Oc3ccc(C(=O)c4cccc(C(=O)c5ccc(Oc6ccc(N7C(=O)c8ccc(*)cc8C7=O)cc6)cc5)n4)cc3)cc1)C2=O (repeat unit)	label 1
*CCOCC(CCl)O* (repeat unit)	label 0
*CC(*)c1ccc(B(Oc2ccc(Cl)c3cccnc23)c2ccc(C(C)(C)C)cc2)cc1 (repeat unit)	label 1
*OP(=O)(Oc1ccc(-c2ccc(*)cc2)cc1)OC1CCCCC1 (repeat unit)	label 0
*CC(O)CN(CC(O)COc1ccc(C(C)(C)c2ccc(O*)cc2)cc1)c1ccc(/C=C/c2ccc([N+](=O)[O-])cc2)cc1 (repeat unit)	label 1
*CC(OC)C(C(=O)OC)C(*)C(=O)OC (repeat unit)	label 0
*CC(C)(C)C1C(=O)N(CCCC)C(=O)C1* (repeat unit)	label 0
*Oc1ccc(OC(=O)c2ccc(C(*)=O)cc2)cc1CCC(C)CC (repeat unit)	label 1
*C(=O)Nc1cccc(Oc2cccc(Oc3cccc(Oc4cccc(Oc5cccc(NC(=O)c6ccc7c(c6)C(=O)N(c6cccc(Oc8cccc(Oc9cccc(N%10C(=O)c%11ccc(*)cc%11C%10=O)c9)c8C#N)c6)C7=O)c5)c4C#N)c3)c2C#N)c1 (repeat unit)	label 0
*CC(*)c1ccc(I)cc1 (repeat unit)	label 0
*Oc1cccc(C(F)(F)C(F)(F)C(F)(F)c2cccc(OC(=O)c3cccc(C(F)(F)C(F)(F)C(F)(F)c4cccc(C(*)=O)c4)c3)c2)c1 (repeat unit)	label 0
